FYI, the data here is from patent US20250320281A1.

Exercise: for every item that follows, state its recorded IC50 (µg/mL), pseudovirus neutralization.
# test_system: HIV-1 APV-13 Env (pseudovirus) (HIV-1 isolate APV-13)
# assay_remarks: cell-based or functional assay

Count: 2. Required value per item: IC50 (µg/mL), pseudovirus neutralization.
1. 1495_C14 (PGC14) (antibody, human IgG1, lambda, V domains shown) VH: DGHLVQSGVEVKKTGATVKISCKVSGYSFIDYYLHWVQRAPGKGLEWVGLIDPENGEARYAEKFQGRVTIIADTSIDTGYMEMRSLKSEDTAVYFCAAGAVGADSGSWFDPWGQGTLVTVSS VL: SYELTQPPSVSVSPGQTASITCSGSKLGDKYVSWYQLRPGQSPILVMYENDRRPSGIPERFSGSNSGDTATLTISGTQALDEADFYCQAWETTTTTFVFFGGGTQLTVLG
2. 1460_G14 (PGG14) (antibody, human IgG1, kappa, V domains shown) VH: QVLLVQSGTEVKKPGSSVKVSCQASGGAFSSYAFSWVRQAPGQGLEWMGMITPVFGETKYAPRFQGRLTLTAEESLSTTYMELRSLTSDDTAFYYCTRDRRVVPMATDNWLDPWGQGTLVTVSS VL: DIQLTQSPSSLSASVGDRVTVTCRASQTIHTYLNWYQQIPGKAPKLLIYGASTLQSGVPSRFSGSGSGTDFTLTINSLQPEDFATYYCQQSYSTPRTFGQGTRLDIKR

> 50 µg/mL
> 50 µg/mL
